Reference for the values: the Deep4Chem optical property database

experiment: photoluminescence quantum yield (fraction); solvent given as SMILES; details: in O
Consider the following compounds and their measured photoluminescence quantum yield readings.
Format: numeric value only, no unit, no commentary.

# count of solved cases: 4
>>> print(df.to_string())
                           structure_string  value_measured
0              COCCOc1cc(C=O)c(OCCOC)cc1C=O            0.54
1  CC[N+]1(CC)CN2C(=N1)C(C(=O)[O-])=Cc1ccccc12           0.736
2  CCCN1/C(=C/C=C/C=C/C2=[N+](CCC)c3ccccc3C2(C)C)C(C)(C)c2ccccc21            0.05
3         Oc1cc(-c2cccs2)ccc1-c1nc2ccccc2s1            0.01

Here is another compound to look at.
Q: Reported photoluminescence quantum yield, compound COc1ccc2nc(N)n[n+]([O-])c2c1 : ____
A: 0.0868
